Reported IC50 against UniProtKB P04629, gathered from multiple publications, appears below.

COc1cc(C(C)n2cnc3cc(-c4ccc(F)cc4)ccc32)ccc1OCc1ccc(C(F)(F)F)nc1 (stereo not drawn) :: 1.24 µM

Provide the reported IC50 of each entry below, same order.
1. CNc1ncnc2[nH]cc(C(=O)c3ccc(NC4CCC(F)(F)CC4)nc3F)c12
2. Cn1cc(CN2C[C@@H](NC(=O)Nc3c4c(nn3-c3ccccc3)CCC4)[C@H](c3ccc(F)c(F)c3)C2)nn1

1. < 0.01 µM
2. 0.1 to 1 µM

---

Reported pIC50 against UniProt P04629, gathered from multiple publications, appears below.
pIC50: −log10 of the molar value.

Consider the worked cases shown below.
COCCN1C[C@@H](NC(=O)Nc2c(C#N)c(C)nn2-c2ccccc2)[C@H](c2ccccc2)C1 (relative stereo) :: 6.00 to 7.00
Clc1ccc(CNc2ccc(Cc3c[nH]c4ncncc34)cn2)cc1 :: ≥ 5.00
Fc1nc(NCc2ccc(Cl)cc2)ccc1Cc1c[nH]c2ncncc12 :: ≥ 5.00
CO[C@@H](C)CN1C[C@@H](NC(=O)Nc2c3c(nn2-c2ccccc2)CCC3)[C@H](c2ccccc2)C1 :: 5.00 to 6.00
COCCN1C[C@@H](NC(=O)Nc2c(C#N)c(C(F)(F)F)nn2-c2ccccc2)[C@H](c2ccc(F)c(F)c2)C1 :: > 7.00

Provide the reported pIC50 of each entry below, same order.
1. COCCN1C[C@@H](NC(=O)Nc2c(C)c(OC[C@@H](C)O)nn2-c2ccccc2)[C@H](c2ccc(F)c(F)c2)C1
2. Cc1c(Cl)cccc1OC[C@H](O)CNc1cc[nH]c(=O)c1-c1nc2cc3c(cc2[nH]1)C(=O)N(C1CCN(CCCO)CC1)C3=O
3. COCCCc1nn(-c2ccccc2)c(NC(=O)N[C@@H]2CN(c3cn[nH]c3)C[C@H]2c2ccc(F)c(F)c2)c1C
4. COCC(CO)N1C[C@@H](NC(=O)Nc2c(Cl)c(-c3cnn(C)c3)nn2-c2ccccc2)[C@H](c2ccc(F)c(F)c2)C1 (stereo partly drawn)

> 7.00
> 6.30
> 7.00
> 7.00
